Attribution: PubChem BioAssay (EPA / NIEHS)

Assay: BSK_IMphg_SRB: Viability Assessment in the BioMAP Diversity Plus: IMphg Assay (AID 2284292);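 further: measured one day after compound addition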
Conditions: primary human endothelial cells with macrophages
Activity calls are given as the source filed them. How the source made its calls: active means hit-call score of the fitted dose curve at least 0.9, where 1 is the maximum; inactive means score below 0.9.
recorded metric: outcome

Here's what some known entries look like.
input smiles: OCC(F)(F)C(F)(F)C(F)(F)C(F)(F)C(F)(F)C(F)(F)C(F)(F)C(F)(F)C(F)(F)C(F)(F)C(F)(F)F
outcome: inactive
//
input smiles: O=P(O)(O)CCC(F)(F)C(F)(F)C(F)(F)C(F)(F)C(F)(F)C(F)(F)C(F)(F)C(F)(F)F
outcome: inactive
//
input smiles: C=CC(=O)OCCC(F)(F)C(F)(F)C(F)(F)C(F)(F)C(F)(F)C(F)(F)C(F)(F)C(F)(F)F
outcome: inactive
//
input smiles: O=P(O)(O)CCC(F)(F)C(F)(F)C(F)(F)C(F)(F)C(F)(F)C(F)(F)F
outcome: inactive
//
input smiles: O=C(O)CCC(F)(F)C(F)(F)C(F)(F)C(F)(F)C(F)(F)C(F)(F)F
outcome: inactive

Now look at this entry.
Query: Tell me measured outcome for CN(Cc1cnc2nc(N)nc(N)c2n1)c1ccc(C(=O)N[C@@H](CCC(=O)O)C(=O)O)cc1 please.
Result: inactive

----------
Test: CCTE_Harrill_HTTr_Viability_MCF7: CCTE's 6-hour Cell Viability Assessment for the High-Throughput Transcriptomics (HTTr) Platform, in MCF-7 cells cultured in DMEM + 10% fetal bovine serum, Harrill Lab (AID 2284010)
Method: This is a cell-based assay that evaluates cell viability using high content imaging to evaluate membrane integrity using propidium iodide dye exclusion in a 384 well format.One of seven assay components measured from the CCTE_Harrill_HTTr_Viability assay. […] Measurements are taken at 6 hours after chemical dosing in 384-well format.The assay component endpoint CCTE_Harrill_HTTr_Viability_MCF7 was analyzed with bidirectional fitting relation to DMSO as the negative control and baseline of activity. […]
The source made the active and inactive calls. How the source made its calls: active means hit-call score of the fitted dose curve at least 0.9, where 1 is the maximum; inactive means score below 0.9.
Allowed answers: T for active, F for inactive

Query: What outcome does the record of this test show for CC(C)(C)c1ccc(CCC=O)cc1 ?
Result: F

Query: What outcome does the record of this test show for CC(C)(c1ccc(Oc2ccc(N)cc2)cc1)c1ccc(Oc2ccc(N)cc2)cc1 ?
Result: F

Query: What outcome does the record of this test show for CCCCc1oc2ccccc2c1C(=O)c1cc(I)c(OCCN(CC)CC)c(I)c1 ?
Result: F

Query: What outcome does the record of this test show for C[C@]12CC[C@@H]3c4ccc(O)cc4CC[C@H]3[C@@H]1CC[C@@H]2OC(=O)CCC1CCCC1 ?
Result: F

Query: What outcome does the record of this test show for C=Cc1ccc(O)c(OC)c1 ?
Result: F

Query: What outcome does the record of this test show for O=C(O)C(=O)O ?
Result: F

Query: What outcome does the record of this test show for CNNCc1ccc(C(=O)NC(C)C)cc1 ?
Result: F

Query: What outcome does the record of this test show for CCCCC=O ?
Result: F

Query: What outcome does the record of this test show for CN(C)CCOC(c1ccccc1)c1ccccc1 ?
Result: F

Query: What outcome does the record of this test show for CCCCCCCCCCCC[N+](C)(C)Cc1ccccc1 ?
Result: T

Query: What outcome does the record of this test show for O=C(O)c1cccc(C(=O)O)n1 ?
Result: F

Query: What outcome does the record of this test show for CC1COCc2cc3c(cc21)C(C)(C)C(C)C3(C)C (centres undefined) ?
Result: F

Query: What outcome does the record of this test show for CC1CCC(CO)CC1 (centres undefined) ?
Result: F

Query: What outcome does the record of this test show for Cc1ccc(N=Nc2c(O)ccc3ccccc23)c(C)c1 ?
Result: F

----------
Assay: ATG_CRE_CIS: Attagene CIS-FACTORIAL HepG2 Assay for human cAMP Responsive Element (CRE) binding protein 3 (AID 2282926)
Conditions: HepG2 CRE cis-reporter, Attagene multiplexed mRNA; actives raise or lower the signal
Description: ATG_CIS is a cell-based, multiplexed-readout assay that uses HepG2, a human liver cell line, with measurements taken at 24 hours after chemical dosing in a 24-well plate.ATG_CRE_CIS is one of 52 assay component(s) measured or calculated from the ATG_CIS assay. […] This assay endpoint, ATG_CRE_CIS, was analyzed with bidirectional fitting relative to DMSO as the negative control and baseline of activity. […]
Calls of active or inactive are those of the source. Rule for the calls: active = hit-call score of the fitted dose curve at least 0.9, where 1 is the maximum; inactive = score below 0.9.
Allowed answers: class 1 = active, class 0 = inactive

Query: What outcome does the record of this test show for CCc1cccc(CC)c1N(COC)C(=O)CS(=O)(=O)O ?
Result: class 0

Query: What outcome does the record of this test show for CCCCCC(C)OC(=O)COc1ccc(Cl)c2cccnc12 (configuration not stated) ?
Result: class 0

Query: What outcome does the record of this test show for CC(C)(C)C1CCCCC1O (configuration not stated) ?
Result: class 0

Query: What outcome does the record of this test show for Oc1c(Cl)ccc(Cl)c1Cl ?
Result: class 0

Query: What outcome does the record of this test show for O=C(O)CCC(F)(F)C(F)(F)C(F)(F)C(F)(F)C(F)(F)C(F)(F)F ?
Result: class 0

Query: What outcome does the record of this test show for Cn1sccc1=O ?
Result: class 1

Query: What outcome does the record of this test show for CCCCCCCCCCCC(=O)O ?
Result: class 0

Query: What outcome does the record of this test show for CC1=CC(=O)c2ccccc2C1=O ?
Result: class 0

Query: What outcome does the record of this test show for C=CC(=O)OCCC(F)(F)C(F)(F)C(F)(F)C(F)(F)C(F)(F)C(F)(F)C(F)(F)C(F)(F)F ?
Result: class 0

Query: What outcome does the record of this test show for Cc1ccc(S(=O)(=O)O)cc1 ?
Result: class 0

Query: What outcome does the record of this test show for O=c1cc(-c2ccccc2)oc2ccc3ccccc3c12 ?
Result: class 0

Query: What outcome does the record of this test show for C=CC(F)(F)C(F)(F)C(F)(F)C(F)(F)F ?
Result: class 0

Query: What outcome does the record of this test show for CCCCCCCC(OC)OC ?
Result: class 0

Query: What outcome does the record of this test show for CCO[Si](CCC1CCC2OC2C1)(OCC)OCC (configuration not stated) ?
Result: class 0

Query: What outcome does the record of this test show for CCCCN(C)C ?
Result: class 0

Query: What outcome does the record of this test show for CCC1CO1 (configuration not stated) ?
Result: class 0

Query: What outcome does the record of this test show for OCCN1CN(CCO)CN(CCO)C1 ?
Result: class 1

----------
Read-out: Human Leukocyte Antigen - DR isotype (HLADR), HLA-DRA (gene 3122)
Experiment: BSK_BE3C_HLADR: BioMAP Diversity Plus: BE3C Assay for Human Leukocyte Antigen - DR isotype (HLADR) Biomarker Activity (AID 2283032)
Settings: primary human bronchial epithelial cells; actives raise or lower the signal
Activity calls are given as the source filed them. The calls were made as follows: active = hit-call score of the fitted dose curve at least 0.9, where 1 is the maximum; inactive = score below 0.9.
Allowed answers: label 1 = active, label 0 = inactive

Query: What outcome does the record of this test show for Cc1cccc2c1ccc1ccccc12 ?
Result: label 0

Query: What outcome does the record of this test show for C=CC(C)(CCC=C(C)C)OC(C)=O (stereo unspecified) ?
Result: label 1

Query: What outcome does the record of this test show for CCOC(=O)CN[C@@H](C(=O)N1CC[C@H]1C(=O)NCc1ccc(/C(N)=N/O)cc1)C1CCCCC1 ?
Result: label 0

Query: What outcome does the record of this test show for CN(Cc1cnc2nc(N)nc(N)c2n1)c1ccc(C(=O)N[C@@H](CCC(=O)O)C(=O)O)cc1 ?
Result: label 0

Query: What outcome does the record of this test show for O=C(c1ccccc1)c1ccccc1 ?
Result: label 0

Query: What outcome does the record of this test show for C=COC(=O)C(C)(C)CCCCCC ?
Result: label 1

Query: What outcome does the record of this test show for CC1=NN(c2ccccc2)C(=O)C1 ?
Result: label 0

Query: What outcome does the record of this test show for O=C1NS(=O)(=O)c2ccccc21 ?
Result: label 0

Query: What outcome does the record of this test show for CCCCCCCCCCCCOS(=O)(=O)O ?
Result: label 1

Query: What outcome does the record of this test show for O=C(NO)c1ccccc1 ?
Result: label 0

Query: What outcome does the record of this test show for O=C(O)CCC(F)(F)C(F)(F)C(F)(F)C(F)(F)C(F)(F)C(F)(F)F ?
Result: label 0

Query: What outcome does the record of this test show for CN(C)CCOC(c1ccccc1)c1ccccc1 ?
Result: label 0

Query: What outcome does the record of this test show for CCCCC=O ?
Result: label 0

Query: What outcome does the record of this test show for Cc1ccc(N=Nc2c(O)ccc3ccccc23)c(C)c1 ?
Result: label 1

Query: What outcome does the record of this test show for Oc1ccc(Cc2ccccc2O)cc1 ?
Result: label 0

Query: What outcome does the record of this test show for OCC(CO)(CBr)CBr ?
Result: label 0

Query: What outcome does the record of this test show for CCCCC(CC)C(=O)OCCOCCOCCOCCOC(=O)C(CC)CCCC (stereo unspecified) ?
Result: label 0

Query: What outcome does the record of this test show for CN(CCO)S(=O)(=O)C(F)(F)C(F)(F)C(F)(F)C(F)(F)C(F)(F)C(F)(F)C(F)(F)C(F)(F)F ?
Result: label 0

Query: What outcome does the record of this test show for O=C(NCc1ncc(C(F)(F)F)cc1Cl)c1c(Cl)cccc1Cl ?
Result: label 0

Query: What outcome does the record of this test show for CC(=O)Nc1ccc(O)cc1 ?
Result: label 0

Query: What outcome does the record of this test show for O=C1OC2(c3ccccc31)c1cc(I)c(O)c(I)c1Oc1c2cc(I)c(O)c1I ?
Result: label 1

Query: What outcome does the record of this test show for CCC(C)c1ccccc1O (stereo unspecified) ?
Result: label 0

Query: What outcome does the record of this test show for Cc1ccc(C(=O)c2ccccc2)cc1 ?
Result: label 0

Query: What outcome does the record of this test show for CS(=O)(=O)c1ccc([C@@H](CC2CCCC2)C(=O)Nc2cnccn2)cc1Cl ?
Result: label 0

Query: What outcome does the record of this test show for CCCCc1oc2ccccc2c1C(=O)c1cc(I)c(OCCN(CC)CC)c(I)c1 ?
Result: label 1

Query: What outcome does the record of this test show for O=P(O)(O)CCC(F)(F)C(F)(F)C(F)(F)C(F)(F)C(F)(F)C(F)(F)C(F)(F)C(F)(F)F ?
Result: label 0
